- assay procedure: Lipophilicity, log D of the compound at pH 7.4
- Format: physicochemical
- condition context: buffer
Consider the following molecules; for each one, report its logD.
One number for each entry.

The following molecules have reported results that may help.
molecule	logD
CC(Nc1ccc2c(c1)CCCC2)C(=O)Nc1ccc(Br)cc1 (stereo unspecified)	7.7
CC(Nc1ccc2c(c1)OCCO2)C(=O)N(C)C (stereo unspecified)	2.2
CC(Nc1cnc2c(c1)OCCO2)C(=O)Nc1ccc(Br)cc1 (stereo unspecified)	4
CC(Nc1ccc2c(c1)OCCO2)C(=O)Nc1nc2ccccc2[nH]1 (stereo unspecified)	3.7
CC(C)C(Nc1ccc2c(c1)OCCO2)C(=O)Nc1ccc(Br)cc1 (stereo unspecified)	6.6
CC(Nc1ccc2c(c1)OCC(=O)N2)C(=O)Nc1ccc(Br)cc1 (stereo unspecified)	3.9

Please look at the items below and tell me logD for each one, in order.
1. CC(Nc1ccc2c(c1)OCCO2)C(=O)NC1CCCCC1 (stereo unspecified)
2. CC(Nc1ccc2c(c1)OCCO2)C(=O)Nc1ccc(-c2cnco2)cc1 (stereo unspecified)
3. CC(Nc1ccc2c(c1)NC(=O)CO2)C(=O)Nc1ccc(Br)cc1 (stereo unspecified)

1. 4.4
2. 3.7
3. 4.2

Please look at the items below and tell me logD for each one, in order.
1. CC(C(=O)Nc1ccc(Br)cc1)N(C)c1ccc2c(c1)OCCO2 (stereo unspecified)
2. CC(Nc1ccc2c(c1)OCCO2)C(=O)Nc1ccc(-c2cccnc2)cc1 (stereo unspecified)

1: 6.7; 2: 4.2
